B1: mRNA-splicing (parent)
chain: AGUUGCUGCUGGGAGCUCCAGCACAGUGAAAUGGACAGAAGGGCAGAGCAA

Variants of: B1
Experiment summary: exon inclusion enrichment index; higher = more inclusion; WT1 exon 5 minigene, HEK293
Would you mind labelling by exon inclusion enrichment index? At or over 4 is fulfilled, under is not fulfilled.

1. G5C C6A U7C G8A U10A G43A = not fulfilled
2. G5C C6G U7C U10C C44G A45C = fulfilled
3. G5A C6G U7G C9A C19U A20U = not fulfilled
4. U3A G5C C6G U7C U10C = fulfilled
5. G5C C6U G8C C9U U10C G12C = not fulfilled
